The measurements presented in this section are drawn from patent US20240109863A1.

Please provide measured log10(EC50) for the entries that follow.
# experimental-target: THRα (Homo sapiens)
# Construct: GST
# Sequence (P10827 1-410 isoform P10827-2, other chains not shown): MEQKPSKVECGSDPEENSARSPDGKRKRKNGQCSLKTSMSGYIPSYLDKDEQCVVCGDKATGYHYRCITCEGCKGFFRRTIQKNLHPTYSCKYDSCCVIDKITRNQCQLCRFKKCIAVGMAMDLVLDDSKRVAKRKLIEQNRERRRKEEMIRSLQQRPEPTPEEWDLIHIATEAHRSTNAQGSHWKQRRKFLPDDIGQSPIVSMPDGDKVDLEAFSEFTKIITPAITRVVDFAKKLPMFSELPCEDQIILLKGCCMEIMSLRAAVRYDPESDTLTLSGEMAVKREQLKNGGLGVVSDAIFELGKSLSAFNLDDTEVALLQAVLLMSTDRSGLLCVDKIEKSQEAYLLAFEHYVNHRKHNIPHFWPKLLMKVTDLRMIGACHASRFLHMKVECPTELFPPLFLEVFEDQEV
# Sequence (P19793 whole entry partner, other chains not shown): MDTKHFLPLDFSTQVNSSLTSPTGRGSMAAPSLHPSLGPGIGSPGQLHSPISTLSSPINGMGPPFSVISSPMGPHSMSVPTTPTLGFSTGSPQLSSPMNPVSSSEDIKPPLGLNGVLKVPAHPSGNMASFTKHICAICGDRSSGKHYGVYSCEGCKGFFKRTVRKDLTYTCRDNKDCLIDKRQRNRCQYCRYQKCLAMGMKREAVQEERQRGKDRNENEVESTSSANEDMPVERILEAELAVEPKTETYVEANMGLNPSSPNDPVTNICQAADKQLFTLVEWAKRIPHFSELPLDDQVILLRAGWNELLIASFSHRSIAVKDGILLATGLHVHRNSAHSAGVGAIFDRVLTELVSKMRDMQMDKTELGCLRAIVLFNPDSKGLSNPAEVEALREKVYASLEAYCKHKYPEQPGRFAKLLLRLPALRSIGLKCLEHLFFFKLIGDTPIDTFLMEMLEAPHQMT
# assay-info: THRα binding assay (as the THRβ assay, THRβ replaced with THRα)
# Assay type: biochemical
# applied-conditions: THRα in place of THRβ
Each number you see is log10 of EC50, and the unit inside the log is nM.

// CC1CCc2c(Oc3c(Cl)cc(-n4nc(C#N)c(=O)[nH]c4=O)cc3Cl)ccc(=O)n21 (stereo not shown) : log10(EC50) value = 2.97

// "Cc1nn(-c2cc(Cl)c(Oc3ccc(=O)n(-c4ccccc4)c3)c(Cl)c2)c(=O)[nH]c1=O" : log10(EC50) value = 2.55

// "N#Cc1nn(-c2cc(Cl)c(Oc3ccc(=O)n(-c4ccccc4)c3)c(Cl)c2)c(=O)[nH]c1=O" : log10(EC50) value = 3.62

// "CC(C)Cn1cc(Oc2c(Cl)cc(-n3nc(C#N)c(=O)[nH]c3=O)cc2Cl)ccc1=O" : log10(EC50) value = 3.31

// "O=c1[nH]c(=O)n(-c2cc(Cl)c(Oc3ccc(=O)n(-c4cccc(C(F)(F)F)c4)c3)c(Cl)c2)nc1CF" : log10(EC50) value = 2.07

// "N#Cc1cccc(-n2cc(Oc3c(Cl)cc(-n4nc(C#N)c(=O)[nH]c4=O)cc3Cl)ccc2=O)c1" : log10(EC50) value = 3.06

// "CC(C)n1cc(Oc2c(Cl)cc(-n3nc(C#N)c(=O)[nH]c3=O)cc2Cl)ccc1=O" : log10(EC50) value = 1.69

###

# experimental-target: THRα (Homo sapiens)
# Construct: GST
# assay-info: THRα binding assay (as the THRβ assay, THRβ replaced with THRα)
# Format: biochemical
# applied-conditions: ratio of THRα EC50 to THRβ EC50
readout-label: THRα/β selectivity (fold)
Only the number, expressed in fold, is required.

// Cc1nn(-c2cc(Cl)c(Oc3ccc(=O)n(-c4ccccc4)c3)c(Cl)c2)c(=O)[nH]c1=O [Example 36] : THRα/β selectivity (fold) value = 19.5

// O=c1[nH]c(=O)n(-c2cc(Cl)c(Oc3ccc(=O)n(-c4cccc(OC(F)(F)F)c4)c3)c(Cl)c2)nc1CF [Example 40] : THRα/β selectivity (fold) value = 23.7

// CC(C)Cn1cc(Oc2c(Cl)cc(-n3nc(C#N)c(=O)[nH]c3=O)cc2Cl)ccc1=O [Example 6] : THRα/β selectivity (fold) value = 20.3

// O=c1[nH]c(=O)n(-c2cc(Cl)c(Oc3ccc(=O)n(-c4cccc(C(F)(F)F)c4)c3)c(Cl)c2)nc1CF [Example 39] : THRα/β selectivity (fold) value = 23.3

// Cc1ccc(-n2cc(Oc3c(Cl)cc(-n4nc(CF)c(=O)[nH]c4=O)cc3Cl)ccc2=O)cc1 [Example 41] : THRα/β selectivity (fold) value = 53.7

// [2H]C1(n2cc(Oc3c(Cl)cc(-n4nc(C#N)c(=O)[nH]c4=O)cc3Cl)ccc2=O)CCCC1 [Example 14] : THRα/β selectivity (fold) value = 20.0

// O=c1[nH]c(=O)n(-c2cc(Cl)c(Oc3ccc(=O)n(-c4cccc(F)c4)c3)c(Cl)c2)nc1CF [Example 38] : THRα/β selectivity (fold) value = 28.3
